System: SW684
Experiment: relative viability vs DMSO control (72 h) (fraction); higher = more viable cells
Details: 0.3704 µM
API: label(entry) gives yes if the entry's relative viability is strictly smaller than 1; on equality or larger values it gives no.

Sample answers from the record:
1) CCS(=O)(=O)N1CC(CC#N)(n2cc(-c3ncnc4[nH]ccc34)cn2)C1; no
2) COC(=O)c1ccc2c(c1)NC(=O)/C2=C(\Nc1ccc(N(C)C(=O)CN2CCN(C)CC2)cc1)c1ccccc1; no
3) Cc1cc2c(F)c(Oc3ncnn4cc(OC[C@@H](C)OC(=O)[C@H](C)N)c(C)c34)ccc2[nH]1 [Brivanib_alaninate]; no
4) CO[C@H]1C[C@@H]2CC[C@@H](C)[C@@](O)(O2)C(=O)C(=O)N2CCCC[C@H]2C(=O)O[C@H]([C@H](C)C[C@@H]2CC[C@@H](OC(=O)C(C)(CO)CO)[C@H](OC)C2)CC(=O)[C@H](C)/C=C(\C)[C@@H](O)[C@@H](OC)C(=O)[C@H](C)C[C@H](C)/C=C/C=C/C=C/1C; yes

Please state whether relative viability is below 1 for Cc1[nH]c(/C=C2\C(=O)Nc3ccccc32)c(C)c1CCC(=O)O [Orantinib] no

Please state whether relative viability is below 1 for `CN(C)C/C=C/C(=O)Nc1cc2c(Nc3ccc(F)c(Cl)c3)ncnc2cc1O[C@H]1CCOC1` no

Please state whether relative viability is below 1 for `CCOc1cc2ncc(C#N)c(Nc3ccc(OCc4ccccn4)c(Cl)c3)c2cc1NC(=O)/C=C/CN(C)C` yes

Value source: the supplement of paper PMC10883282
